# Lookup of reported B-score keyed by entry
# TARGET OR TEST SYSTEM: ATP-sensitive inward rectifier potassium channel 1 (Homo sapiens) (UniProt P48048)
# Sequence (P48048 whole entry, looked up): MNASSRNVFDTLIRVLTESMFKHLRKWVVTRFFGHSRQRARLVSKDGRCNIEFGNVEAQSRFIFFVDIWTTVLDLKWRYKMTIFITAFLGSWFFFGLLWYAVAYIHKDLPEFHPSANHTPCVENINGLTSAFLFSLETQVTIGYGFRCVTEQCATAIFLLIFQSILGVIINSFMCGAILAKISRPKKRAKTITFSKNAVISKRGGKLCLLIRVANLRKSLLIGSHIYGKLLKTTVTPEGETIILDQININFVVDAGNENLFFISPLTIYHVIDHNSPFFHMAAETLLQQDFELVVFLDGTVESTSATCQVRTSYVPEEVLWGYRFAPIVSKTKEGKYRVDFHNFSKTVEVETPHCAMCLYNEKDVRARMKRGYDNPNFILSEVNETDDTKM
# PROTOCOL DETAILS: ROMK potassium channel modulators, primary screen, cell-based, thallium flux, MLSMR library (AID 1918);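 also: B-score of the F/F0 ratio slope over 7 to 12 s after thallium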
# CONDITION CONTEXT: Tet-inducible ROMK, thallium flux fluorescence; at 10 µM; actives lie on both sides
The whole screen tested about 130,000 compounds, of which about 2,500 (1.9%) were called active. The list comes from a sample in which actives are over-represented; it also holds close analogues and randomly drawn compounds.
API doc: respond with a numeric literal and nothing else, no unit.

Would you please look over these solved cases?
>  <MOLECULE>
CC(Sc1nnnn1C1CCCCC1)C(=O)O (stereo not given)

>  <RECORDED VALUE>
0.253

$$$$
>  <MOLECULE>
Cc1ccc(-n2c(O)c(C=Nc3ccc(S(=O)(=O)Nc4ncccn4)cc3)c3ccccc3c2=O)cc1C

>  <RECORDED VALUE>
0.113

$$$$

Kindly consider the entry below.
Supply recorded B-score for "NS(=O)(=O)c1ccc(CCNC(=O)c2ccc([N+](=O)[O-])cc2[N+](=O)[O-])cc1" here.
0.546

====

# TARGET OR TEST SYSTEM: ATP-sensitive inward rectifier potassium channel 1 (Homo sapiens) (UniProt P48048)
# PROTOCOL DETAILS: ROMK potassium channel modulators, primary screen, cell-based, thallium flux, MLSMR library (AID 1918);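 also: B-score of the F/F0 ratio slope over 7 to 12 s after thallium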
# CONDITION CONTEXT: Tet-inducible ROMK, thallium flux fluorescence; at 10 µM; actives lie on both sides
Out of some 130,000 compounds screened, about 2,500 (1.9%) were called active.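 The calls were made as follows: active = signal ratio slope over the read window, or its plate-corrected B-score, at least 3 SD from the plate mean, either direction; inactive = the rest.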 The entries come from a sample that favours actives as a whole.
# valid calls are true = active, false = inactive; nothing else

See these solved cases before continuing.
>  <MOLECULE>
CC1=C/C(=N\S(=O)(=O)c2ccccc2)C(C(C)C)=CC1=O

>  <CATEGORY LABEL>
false

$$$$
>  <MOLECULE>
NS(=O)(=O)c1ccc(NC(=O)/C=C/c2ccccc2Cl)cc1

>  <CATEGORY LABEL>
false

$$$$
>  <MOLECULE>
Cc1cc2cc(CN(Cc3cccs3)Cc3nnnn3CC3CCCO3)c(=O)[nH]c2cc1C (stereo unspecified)

>  <CATEGORY LABEL>
true

$$$$
>  <MOLECULE>
NC(=O)C1(C(N)=O)OC1c1ccc(Cl)cc1Cl (stereo unspecified)

>  <CATEGORY LABEL>
false

$$$$
>  <MOLECULE>
CC(C)OC(=O)C(C#N)c1nc2ccccc2nc1N1CCN(Cc2ccc3c(c2)OCO3)CC1 (stereo unspecified)

>  <CATEGORY LABEL>
false

$$$$

Fill in: this test's call for "O=c1[nH]c(N2CCN(Cc3ccc4c(c3)OCO4)CC2)nc2c1CCCC2" is ___
false

Fill in: this test's call for COc1ccccc1C(c1nnnn1CC1CCCO1)N1CCN(c2ccccc2)CC1 (stereo unspecified) is ___
false

Fill in: this test's call for COc1ccc2[nH]c(=O)c(CN(Cc3nnnn3CCc3ccccc3)CC3CCCO3)cc2c1 (stereo unspecified) is ___
false

Fill in: this test's call for "Fc1ccc2[nH]c3c(N4CCN(Cc5ccc6c(c5)OCO6)CC4)ncnc3c2c1" is ___
true

Fill in: this test's call for "COc1ccc(NC(=S)Nc2ccc(S(N)(=O)=O)cc2)c(C)c1" is ___
false

Fill in: this test's call for "CC(C)OCCCNc1ncnc2c1[nH]c1ccc(F)cc12" is ___
false
